Test system: SW 1271 complex tumor spheroid viability
assay_remarks: Anticancer human tumor SW 1271 cell line growth inhibition; active = viability on the fitted dose curve at most 10% of control; inactive = the rest;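 also: spheroids exposed to agents for seven days before readout; percent of DMSO vehicle control luminescence so 100% = vehicle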
assay_context: second compound 0.0949 µM; first compound 3.16 µM
Outcomes: active, inactive

# compound, class
data = [
    ("[2H]c1nc(C)nc([2H])c1-c1cc(NC[C@@H](C)c2cccc3c(C(=O)NC)ccnc23)ncn1 + CC[C@@]1(O)C(=O)OCc2c1cc1n(c2=O)Cc2cc3c(CN(C)C)c(O)ccc3nc2-1", "inactive"),
    ("CC1COCCN1c1cc(-c2ccnn2C)c2ccnc(-c3ccn[nH]3)c2n1 (stereo unspecified) + CC[C@@]1(O)C(=O)OCc2c1cc1n(c2=O)Cc2cc3c(CN(C)C)c(O)ccc3nc2-1", "active"),
    ("Cc1cc(C)c(CNC(=O)c2cc(-c3ccc(CN4CCOCC4)cc3)cc3c2cnn3C2CCCC2)c(=O)[nH]1 + CC[C@@]1(O)C(=O)OCc2c1cc1n(c2=O)Cc2cc3c(CN(C)C)c(O)ccc3nc2-1", "inactive"),
    ("COc1ccc([C@@H](O)c2cc(-c3ncnc4cc(N5CCOCC5)ccc34)c(F)cc2Cl)nn1 + CC[C@@]1(O)C(=O)OCc2c1cc1n(c2=O)Cc2cc3c(CN(C)C)c(O)ccc3nc2-1", "inactive"),
    ("CC(C)n1c(=O)n(C)c2cnc3cc(F)c(-c4ccc(OCCCN5CCCCC5)nc4)cc3c21 + CC[C@@]1(O)C(=O)OCc2c1cc1n(c2=O)Cc2cc3c(CN(C)C)c(O)ccc3nc2-1", "inactive"),
    ("COc1cc(C)[nH]c(=O)c1CN1CCc2c(Cl)cc(C(OC)C3COC3)c(Cl)c2C1=O (stereo unspecified) + CC[C@@]1(O)C(=O)OCc2c1cc1n(c2=O)Cc2cc3c(CN(C)C)c(O)ccc3nc2-1", "inactive"),
]

====

Recorded viability, T/C, one value per entry.
Tested on: SW 1271 complex tumor spheroid viability
assay_remarks: Anticancer human tumor SW 1271 cell line growth inhibition;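 also: spheroids exposed to agents for seven days before readout; percent of DMSO vehicle control luminescence so 100% = vehicle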
assay_context: second compound 31.6 µM; first compound 10 µM; hits give low values
metric_name: viability, T/C (%)

# compound, study_target, metric_name, unit_symbol, recorded_number
records = [
    ("CC(C)n1c(=O)n(C)c2cnc3cc(F)c(-c4ccc(OCCCN5CCCCC5)nc4)cc3c21 + Cn1nnc2c(C(N)=O)ncn2c1=O", "SW 1271 complex tumor spheroid viability", "viability, T/C", "%", 29.5),
    ("CC1COCCN1c1cc(-c2ccnn2C)c2ccnc(-c3ccn[nH]3)c2n1 (stereo unspecified) + Cn1nnc2c(C(N)=O)ncn2c1=O", "SW 1271 complex tumor spheroid viability", "viability, T/C", "%", 3.25),
    ("COc1cc(C)[nH]c(=O)c1CN1CCc2c(Cl)cc(C(OC)C3COC3)c(Cl)c2C1=O (stereo unspecified) + Cn1nnc2c(C(N)=O)ncn2c1=O", "SW 1271 complex tumor spheroid viability", "viability, T/C", "%", 80.2),
    ("COc1ccc([C@@H](O)c2cc(-c3ncnc4cc(N5CCOCC5)ccc34)c(F)cc2Cl)nn1 + Cn1nnc2c(C(N)=O)ncn2c1=O", "SW 1271 complex tumor spheroid viability", "viability, T/C", "%", 10.2),
    ("[2H]c1nc(C)nc([2H])c1-c1cc(NC[C@@H](C)c2cccc3c(C(=O)NC)ccnc23)ncn1 + Cn1nnc2c(C(N)=O)ncn2c1=O", "SW 1271 complex tumor spheroid viability", "viability, T/C", "%", 80.3),
    ("Cc1cc(C)c(CNC(=O)c2cc(-c3ccc(CN4CCOCC4)cc3)cc3c2cnn3C2CCCC2)c(=O)[nH]1 + Cn1nnc2c(C(N)=O)ncn2c1=O", "SW 1271 complex tumor spheroid viability", "viability, T/C", "%", 62),
]
